- assay.overview: in vitro
- condition.info: human, hela cells, % viability
assay.metric: viability at 28.5 h, 10 µM (%)
Write the number in % without appending the unit.

Enquiry: # query: viability at 28.5 h, 10 µM of entry CC(C)(O)C1CCCN(C(=O)c2cc(COc3cccc(F)c3)[nH]n2)C1 (stereo not drawn)
Return: 99.9

Enquiry: Next record, please: CC1(C)CC(NC(=O)CN2CCCCC2)CC(C)(C)N1
Return: 92.4

Enquiry: Please answer likewise for COc1cc(/C=C2/S/C(=N\c3ccccc3)NC2=O)ccc1OCc1ccccc1[N+](=O)[O-]
Return: 88.4

----------
- assay.overview: in vitro
- condition.info: human, hela cells, % viability
assay.metric: viability at 28.5 h, 10 µM (%)
The answer is to be given in %; state only the numeric part.

Enquiry: Name the recorded viability at 28.5 h, 10 µM for COCCC(=O)N1C[C@@H](c2ccccc2F)[C@@]2(CCCC(=O)N2)C1 [CBK283360] .
Return: 90.4

Enquiry: Input COc1cccc(C(=O)N2CCC(NC(=O)c3csc(-c4ccccc4)n3)CC2)c1 [CBK155030]
Return: 90.4

Enquiry: Another compound to look at: CCN1CCN(C(=O)c2ccccc2N(Cc2ccccc2)S(=O)(=O)c2ccc(C)cc2)CC1 [CBK266827]
Return: 91.6

Enquiry: Please give the result for CCc1nnc(NS(=O)(=O)c2cc(C(=O)O)c(Cl)cc2F)s1 [CBK062195] too.
Return: 90.9

Enquiry: Same lookup for CC(C)(C)C1=CC2=NC3(CCS(=O)(=O)CC3)[C@@H]3C[C@@H](O)[C@@H](O)[C@@H]3N2O1 [CBK303247] , please.
Return: 92

Enquiry: For Nc1cc(O)nc(SCCN2CCN(c3ccc(C(F)(F)F)cc3[N+](=O)[O-])CC2)n1 [CBK265225] then?
Return: 88.5

----------
- assay.overview: in vitro
- condition.info: human, hela cells, % viability
assay.metric: viability at 28.5 h, 10 µM (%)
Give the value in % but do not write % after it.

Enquiry: Which viability at 28.5 h, 10 µM is listed for CCN1CC2(CCN(CCCC#N)CC2)c2ccccc21 ?
Return: 91.1

Enquiry: // query: CC(C)NC(=O)NC[C@H]1C[C@@H]2CCN1C[C@@H]2c1cc(-c2cccs2)nn1C
Return: 90

Enquiry: Another molecule to check: COc1ccc(-c2cnn(-c3ccc(OC(F)(F)F)cc3)n2)cc1
Return: 87.6

Enquiry: Another molecule to look at: O=C(COc1ccc(Cl)cc1Br)NNC(=O)c1ccc(O)cc1
Return: 95.5

Enquiry: And then COCCCN(Cc1ccccn1)Cc1cc(F)ccc1F , what is it?
Return: 108

Enquiry: Now the molecule NC(=O)CSc1ccccc1
Return: 91.2

Enquiry: Then O=C(c1nc2ccccc2s1)C1CCNCC1 ?
Return: 103

Enquiry: What do you get for c1csc(CNc2nc3ccccc3n2CCN2CCOCC2)c1 ?
Return: 109

Enquiry: How about CN(C)C(=O)CC(O)c1cc2n(n1)CCN(Cc1cccs1)C2 (stereo not shown) ?
Return: 113

Enquiry: Ok, now CCOc1ccccc1-c1ccccc1NC(=O)c1nc2ccccc2n(C)c1=O
Return: 90.1

Enquiry: // repeat for C=CCn1c(Cc2csc(NC(=O)c3ccc([N+](=O)[O-])c(C)c3)n2)n[nH]c1=S and report
Return: 87

Enquiry: Try this molecule too: CCn1c(C)nc2cc(NC(=O)c3ccc(CN(C)C)cc3)ccc21
Return: 106

Enquiry: // next record O=C(Nc1ccc2[nH]ccc2c1)N1CCCC(CO)C1 (stereo not shown)
Return: 86.8

Enquiry: // next record COc1cc2oc(=O)c(CC(=O)N3CCCC(C(=O)O)C3)c(C)c2cc1Cl (stereo not shown)
Return: 107

Enquiry: # iterate: C[C@H]1CN2C[C@H](O)CC2CN1Cc1cccc(Oc2ccccc2)c1 (stereo partly shown)
Return: 93.6

Enquiry: Do the same for C(#Cc1csc(COc2cncc(N3CCNCC3)n2)c1)c1ccccc1 [CBK200006G] please
Return: 92.5

----------
- assay.overview: in vitro
- condition.info: human, hela cells, % viability
assay.metric: viability at 28.5 h, 10 µM (%)
Kindly provide the numeric value in % only, without the unit symbol.

Enquiry: # get_value(readout='viability at 28.5 h, 10 µM', item= CCCC1CN(C)c2ccccc2C1=O (stereo not shown) )
Return: 87

Enquiry: Please do the same for O=C(CN1CC[C@H]2NC(=O)COc3ccccc3CCCC[C@@H]2C1)NCc1ccccn1 as well.
Return: 96.7

Enquiry: // query: COc1cccc(CC(=O)N2CCC(Cc3ccccc3-c3ccccc3)(C(N)=O)CC2)c1
Return: 96.7

Enquiry: Queued: O=C(O)c1ccnc2ccccc12
Return: 88.2

Enquiry: Also check COc1ccc(C(=S)NCCCCCC(=O)O)cc1
Return: 87.1

Enquiry: Now this one: O=C(Cc1ccccc1F)NCc1nnc(-c2cccs2)o1
Return: 82

Enquiry: Entry O=C1CC(C(=O)Nc2ccc(Cl)cc2)c2c(nc(SCc3ccccc3F)[nH]c2=O)N1 (stereo not shown) please
Return: 93.6

Enquiry: Quick one: CCOC(=O)c1cnc(SCc2nc(N)nc(Nc3ccc(C)cc3)n2)nc1N
Return: 115

Enquiry: Request: Cc1ccc2c(NC(=O)c3cc4c([nH]c3=O)CCC4)c(C)ccc2n1
Return: 93

Enquiry: Another: O=C1CN(C(=O)NCC2CCCCC2)CCN1
Return: 85.9

----------
- assay.overview: in vitro
- condition.info: human, hela cells, % viability
assay.metric: viability at 28.5 h, 10 µM (%)
A number alone suffices; assume %.

Enquiry: # get_value(readout='viability at 28.5 h, 10 µM', item= CN(C)c1cccc(NC(=O)Nc2ncc(Br)c3cccnc23)c1 [CBK107633] )
Return: 94

Enquiry: Now give it for CN(CCC1CCOCC1)c1nc2c(c(=O)[nH]1)Cc1ccccc1OC2 [CBK306622] too.
Return: 96.2

Enquiry: // same read-out, input: O=C(O)c1ccc(-c2cnc3ccccc3n2)cc1 [CBK288010]
Return: 106

Enquiry: Another compound: Cc1cc(C)n(CCn2cc(-c3ncc[nH]3)nn2)c(=O)n1 [CBK307554]
Return: 83.1

Enquiry: Another: Cc1cc(C(=O)N2CC3CCCC(O)(c4cccn4C)C3C2)c(C)[nH]1 (stereo not shown) [CBK284514]
Return: 93.9

Enquiry: And for O=C(CSc1ccc(Cl)cc1)Nc1cc(C(=O)O)cc(C(=O)O)c1 [CBK266531] ?
Return: 98.8

Enquiry: Can you check N#Cc1ccc(CSc2nnc(COc3ccccc3)n2Cc2ccco2)cc1 [CBK267539] next?
Return: 87.9

Enquiry: Try Cc1ccc(S(=O)(=O)Nc2ccc(C(=O)Nc3ccc(S(=O)(=O)N4CCCCC4)cc3)cc2)cc1 [CBK269000] next.
Return: 101

Enquiry: How about CC(=O)Nc1ccc(NC(=O)CC2(CC(=O)O)CCCCC2)cc1 [CBK299816] ?
Return: 102

Enquiry: // next record COc1ccc(CCN2CCC(CNC(=O)NCc3ccccc3)CC2)cc1OC [CBK051511T]
Return: 92.3

Enquiry: Entry CCc1nc2ccc(C(=O)N3CCN(C)CC3)cn2c1N(C)Cc1ccc(NC(C)=O)cc1 [CBK145603] please
Return: 87

Enquiry: Also, O=C(CCc1ccc(Cl)cc1)NCCn1cncn1 [CBK283184] please.
Return: 98.6

Enquiry: And the next one, Cn1c(=O)[nH]c(=O)c2c1nc(N1CCCCC1)n2CCCSc1nc2ccccc2s1 [CBK269550] ?
Return: 103

Enquiry: Request: OCCc1ccc(Nc2cc(-c3cccnc3)ncn2)cc1 [CBK090768]
Return: 114

Enquiry: Item: CC(=O)Nc1ccc(CNC(=O)CN(C)CC2CCCCO2)cc1 (stereo not shown) [CBK306567]
Return: 89.6

Enquiry: Entry c1cncc(-c2ncc(-c3ccco3)c(-c3ccco3)n2)c1 [CBK284503] please
Return: 93.5

Enquiry: Try Cc1ccc(OCC(=O)NNC(=O)c2ccco2)cc1 [CBK261800] next.
Return: 96.1

Enquiry: // query: O=C1CC2(CCCC2)C(=O)N1CCNc1nccc(C(F)(F)F)n1 [CBK028777]
Return: 97.4

Enquiry: Next entry: CC(=O)NCCn1cc2c(n1)[C@H]1CN(C(=O)c3ccccc3)C[C@H]1C2 [CBK282073]
Return: 111

Enquiry: Also COc1ccccc1Cc1cccc(C2CCN(CC(=O)Nc3nccs3)CC2)n1 [CBK286227] ?
Return: 95.1

Enquiry: Same question, CC(C)(C)OC(=O)N1CCN(c2cc(Cl)nc(N)n2)CC1 [CBK003505] this time
Return: 91.8

Enquiry: Request: CC(=O)Nc1cccc(-n2nnnc2SC2CCCCC2=O)c1 (stereo not shown) [CBK304600]
Return: 95.4

Enquiry: Another compound to look at: COc1cc(C#N)ccc1OCc1ccc2nc(C(F)(F)F)cc(Cl)c2c1 [CBK002589]
Return: 98.3

Enquiry: Would you mind doing Cc1nc(C)c(CCC(=O)Nc2ccc(N3CCOCC3)cc2)c(=O)[nH]1 [CBK306059] as well?
Return: 88.4

Enquiry: Also, CN(C(=O)c1ccccc1N)c1ccccc1 [CBK086716] please.
Return: 97.6

Enquiry: Same again, this time with CCc1ccc(OCC(=O)Nc2ccc3oc(-c4ccc(F)cc4Cl)nc3c2)cc1 [CBK265010]
Return: 100

Enquiry: Similarly, Cc1cnn(C2CCCN(C(=O)CCCc3cccs3)C2)c1 (stereo not shown) [CBK304168] ?
Return: 96.3

Enquiry: Also check CCCCc1ccc(-c2cnc3nc(O)ccc3c2)cc1 [CBK081296]
Return: 69.9

Enquiry: Same again, this time with CN1CCN(c2c(C(=O)O)cc([N+](=O)[O-])cc2[N+](=O)[O-])CC1 [CBK261519]
Return: 100

Enquiry: And for O=C1N(Cc2cccc3ccccc23)c2ccccc2C1(c1ccc(O)cc1)c1ccc(O)cc1 [CBK261410] ?
Return: 88.4

Enquiry: Another compound: COc1cc(CNC(=O)c2cccnc2Sc2ccc(Cl)cc2)ccn1 [CBK297755]
Return: 108

Each recorded value in this set is attributed to paper PMC12040169.
